# Test system: Grb2 SH2 (UniProt P62993)
# Procedure text: SH2 binding enrichment of the phosphorylated peptide, bacterial display (enrichment ratio); higher = better substrate or ligand; peptides without Tyr show the background
Measured endpoint: SH2 binding enrichment

Consider the following illustrative entries.
In: Look at this sequence and give its reported SH2 binding enrichment. NKFVAYIESQG [KDM4B_Y34_YF]
Out: 0.968

In: Given the entry PSGPAYRGAVP [ASAH1_Y43_T42A] , report its measured SH2 binding enrichment.
Out: 0.72

In: Value lookup for SH2 binding enrichment; key = ARGMEYLASKK [FGFR1_Y613]
Out: 0.529

In: So what's the measured SH2 binding enrichment for this one? HSVLNYGVCVC [JAK2_Y613_L609S]
Out: 0.853

In: State the recorded SH2 binding enrichment for this entry: ALECLYHREKR [TEKT5_Y195]
Out: 1

[P] GVYSRHFTTYD [CLCA1_Y661_Y661H]
[Q] SLFQFYFQQKG [CHKB_Y381_R377L]
In: So which one has the bigger SH2 binding enrichment here, P or Q ? Indicate which entry you chose by stating its label.
Out: Q

###

Items are presented alongside their recorded phosphorylation enrichment.
# Tested on: c-Src
# Procedure text: phosphorylation enrichment, bacterial display (enrichment ratio); higher = better substrate or ligand; peptides without Tyr show the background
No unit in the answer, please; the number alone is enough.

Example sequences with recorded phosphorylation enrichment:
In: I'd like to know its phosphorylation enrichment. The sequence in question is KQNSLYSFSDH [CCDC82_Y331]
Out: 3.97

In: So what does the record say about phosphorylation enrichment for GLTSTYVGIRK [ROBO1_Y932_A933V] ?
Out: 0.562

In: Given KGELRYMHSPV [ABCD1_Y281_R285P] , state its recorded phosphorylation enrichment.
Out: 0.365

In: Tell me the measured phosphorylation enrichment of LWKWRYEELKE [CCDC102B_Y299_K298R] , please.
Out: 0.715

In: Would you kindly share the measured phosphorylation enrichment for PPVVNYEEDAR [FER_Y402] ?
Out: 0.534

Next:
In: Requested field: phosphorylation enrichment. Item: MTKEQYIKMNR [ARFGEF2_Y797]
Out: 0.369

In: Need phosphorylation enrichment, item QEGPEYWDRNT [HLA-B_Y83]
Out: 0.485

In: Could you tell me which phosphorylation enrichment is on file for FAELVYTGFWH [ASS1_Y322] ?
Out: 7.01

In: Reported phosphorylation enrichment, sequence TSIGNYYKPWF [DHCR24_Y299_N294T] : ____
Out: 0.707

In: Item under review: LDYNEYFRGLN [HPRT1_Y198_D201G] . Reported phosphorylation enrichment?
Out: 0.892

In: What value of phosphorylation enrichment has been recorded for this entry: SRNSKYNAEST [PSEN1_Y315_K311R]
Out: 0.378

In: // phosphorylation enrichment lookup, key: ASNFNYFFHRE [KCNA1_Y413_V408A_YF]
Out: 0.43

###

# Test system: MERTK (UniProt Q12866)
# Sequence (Q12866 whole entry, looked up): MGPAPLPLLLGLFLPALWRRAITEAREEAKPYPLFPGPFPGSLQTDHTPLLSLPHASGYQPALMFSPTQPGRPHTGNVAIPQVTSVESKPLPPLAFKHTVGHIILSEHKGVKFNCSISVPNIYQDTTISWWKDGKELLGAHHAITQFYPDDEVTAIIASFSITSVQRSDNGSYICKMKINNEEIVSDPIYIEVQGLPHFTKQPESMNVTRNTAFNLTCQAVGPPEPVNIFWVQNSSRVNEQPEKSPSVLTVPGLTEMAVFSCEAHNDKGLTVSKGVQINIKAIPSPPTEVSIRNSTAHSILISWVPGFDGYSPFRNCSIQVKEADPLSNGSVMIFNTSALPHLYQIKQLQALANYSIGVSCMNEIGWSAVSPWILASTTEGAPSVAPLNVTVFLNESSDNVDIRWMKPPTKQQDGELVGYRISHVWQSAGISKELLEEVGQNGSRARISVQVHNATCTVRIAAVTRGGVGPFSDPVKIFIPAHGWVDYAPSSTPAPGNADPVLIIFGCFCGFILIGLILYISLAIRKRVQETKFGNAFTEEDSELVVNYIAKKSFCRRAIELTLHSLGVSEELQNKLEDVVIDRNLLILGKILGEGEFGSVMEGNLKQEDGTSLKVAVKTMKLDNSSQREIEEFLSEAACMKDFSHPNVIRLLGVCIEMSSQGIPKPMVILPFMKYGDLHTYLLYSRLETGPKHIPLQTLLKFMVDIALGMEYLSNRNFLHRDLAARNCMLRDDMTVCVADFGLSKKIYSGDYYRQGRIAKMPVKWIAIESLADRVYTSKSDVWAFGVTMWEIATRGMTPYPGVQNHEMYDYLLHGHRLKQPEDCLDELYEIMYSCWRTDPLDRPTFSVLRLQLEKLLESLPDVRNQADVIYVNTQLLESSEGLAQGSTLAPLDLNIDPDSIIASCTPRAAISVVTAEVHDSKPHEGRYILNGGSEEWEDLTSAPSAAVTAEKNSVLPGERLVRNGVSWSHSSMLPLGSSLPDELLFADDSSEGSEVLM
# Procedure text: phosphorylation enrichment, bacterial display (enrichment ratio); higher = better substrate or ligand; peptides without Tyr show the background
Measured phosphorylation enrichment accompanies every entry in the list below.
Write the value as a bare number.

Example results:
In: Reported phosphorylation enrichment, sequence SQQTFYPVSNM [ABCD1_Y181_R182P_YF] : ____
Out: 0.374

In: Which phosphorylation enrichment is reported for this sequence? HTLQLYRCREE [ALPK3_Y342]
Out: 0.607

In: May I ask what phosphorylation enrichment has been recorded for EVKEAYMGNVL [ACAT1_Y90] ?
Out: 0.444

---
In: Requested field: phosphorylation enrichment. Item: PPSELYFVKVD [TERT_Y707_P704S]
Out: 1.82

In: Using the record for PNLILYGDFRQ [MYH7_Y715_R712L] , report its phosphorylation enrichment.
Out: 0.465

In: Can you look up the measured phosphorylation enrichment of SHTPSYCDEWL [RITA1_Y109_S113W] for me?
Out: 0.553

In: Using the record for PSARTYCFKQE [KLHDC9_Y175_YF] , report its phosphorylation enrichment.
Out: 0.429

Hey, just so you know, these numbers are from the supplement of paper PMC10065799.
